Assay: Cytotoxicity against human HepG2(2.2.15) cells
Assay type: cell-based
Conditions: read-out: TC50 (the source's name)
Measured CC50, listed per entry.
experimental.readout: CC50 (µg/mL)

INSERT INTO measurements (compound, experimental_readout, qualifier_symbol, measured) VALUES
  ('CC(C)(C)OC(=O)N1C[C@@H](O)[C@@H](O)[C@H](O)[C@H]1n1cnc2c(N)ncnc21', 'CC50', '=', 1000),
  ('CC(C)(C)OC(=O)N1C[C@@H](O)[C@@H](O)[C@H](O)[C@H]1n1cc(F)c(=O)[nH]c1=O', 'CC50', '=', 37),
  ('Cc1cn([C@H]2[C@H](O)[C@H](O)C(O)CN2C(=O)OC(C)(C)C)c(=O)[nH]c1=O (single isomer, unassigned)', 'CC50', '=', 577),
  ('Cc1cn([C@H]2[C@@H](O)[C@H](O)[C@@H](O)CN2C(=O)OC(C)(C)C)c(=O)[nH]c1=O', 'CC50', '=', 1000),
  ('CC(C)(C)OC(=O)N1CC(O)[C@@H](O)[C@H](O)[C@H]1n1cc(F)c(=O)[nH]c1=O (single isomer, unassigned)', 'CC50', '=', 192),
  ('CC(C)(C)OC(=O)N1CC(O)[C@@H](O)[C@@H](O)[C@@H]1n1cnc2c(N)ncnc21 (single isomer, unassigned)', 'CC50', '=', 693),
  ('CC(C)(C)OC(=O)N1C[C@@H](O)C(O)C(O)C1n1cnc2c(N)ncnc21 (single isomer, unassigned)', 'CC50', '=', 1000),
  ('CC(C)(C)OC(=O)N1CC(O)[C@@H](O)[C@H](O)[C@H]1n1ccc(=O)[nH]c1=O (single isomer, unassigned)', 'CC50', '>', 1000),
  ('CC(C)(C)OC(=O)N1C[C@H](O)[C@@H](O)[C@@H](O)[C@@H]1n1cc(F)c(=O)[nH]c1=O', 'CC50', '=', 29),
  ('CC(C)(C)OC(=O)N1CC(O)[C@@H](O)[C@H](O)[C@H]1n1cnc2c(N)ncnc21 (single isomer, unassigned)', 'CC50', '>', 1000),
  ('Cc1cn([C@@H]2[C@@H](O)[C@H](O)[C@@H](O)CN2C(=O)OC(C)(C)C)c(=O)[nH]c1=O', 'CC50', '=', 1000),
  ('CC(C)(C)OC(=O)N1CC(O)[C@@H](O)[C@H](O)[C@H]1n1ccc(N)nc1=O (single isomer, unassigned)', 'CC50', '>', 1000),
  ('Cc1cn([C@@H]2[C@@H](O)[C@H](O)C(O)CN2C(=O)OC(C)(C)C)c(=O)[nH]c1=O (single isomer, unassigned)', 'CC50', '>', 1000),
  ('Cc1cn([C@@H]2[C@H](O)[C@H](O)C(O)CN2C(=O)OC(C)(C)C)c(=O)[nH]c1=O (single isomer, unassigned)', 'CC50', '=', 430),
  ('CC(C)(C)OC(=O)N1C[C@@H](O)[C@@H](O)[C@H](O)[C@@H]1n1cnc2c(N)ncnc21', 'CC50', '=', 1000),
  ('Nc1ccn([C@@H]2CS[C@H](CO)O2)c(=O)n1', 'CC50', '=', 1000);

---

Assay: Selectivity index, ratio of TC50 for human HepG2(2.2.15) cells to IC50 for Hepatitis B virus
Format: toxicity
Details: read-out: Selectivity Index
selectivity ratio vs 10: at or above is T, below is F.

INSERT INTO assay_data (compound, qualitative_label) VALUES
  ('CC(C)(C)OC(=O)N1C[C@@H](O)[C@@H](O)[C@H](O)[C@H]1n1cc(F)c(=O)[nH]c1=O', 'T'),
  ('Cc1cn([C@H]2[C@H](O)[C@H](O)C(O)CN2C(=O)OC(C)(C)C)c(=O)[nH]c1=O (single isomer, unassigned)', 'T'),
  ('Nc1ccn([C@@H]2CS[C@H](CO)O2)c(=O)n1 [LAMIVUDINE]', 'T'),
  ('CC(C)(C)OC(=O)N1CC(O)[C@@H](O)[C@@H](O)[C@@H]1n1cnc2c(N)ncnc21 (single isomer, unassigned)', 'F'),
  ('CC(C)(C)OC(=O)N1C[C@@H](O)C(O)C(O)C1n1cnc2c(N)ncnc21 (single isomer, unassigned)', 'F'),
  ('CC(C)(C)OC(=O)N1C[C@@H](O)[C@@H](O)[C@H](O)[C@H]1n1cnc2c(N)ncnc21', 'F'),
  ('Cc1cn([C@@H]2[C@H](O)[C@H](O)C(O)CN2C(=O)OC(C)(C)C)c(=O)[nH]c1=O (single isomer, unassigned)', 'F');
